Data credit: paper PMC9343874

Assay: Pharmacokinetic study in rats after oral administration of cinobufacini capsule (UPLC-MS/MS of plasma)
Format: in vivo, rat
Settings: male, Sprague-Dawley, in vivo; rat plasma, oral cinobufacini capsule 3.6 g/kg (high), mean ± SD, n = 6; read-out: MRT0-t
Under this convention, t denotes MRT last strictly below 2 h and f denotes MRT last at or above 2 h.

C[C@]12CC[C@H]3[C@@H](CC[C@]4(O)C[C@@H](O)CC[C@]34C=O)[C@@]1(O)CC[C@@H]2c1ccc(=O)oc1: f
C[C@]12CC[C@H](O)C[C@H]1CC[C@@H]1[C@@H]2[C@H](O)C[C@]2(C)[C@@H](c3ccc(=O)oc3)CC[C@]12O: t
C[C@]12CC[C@H](O)C[C@H]1CC[C@@H]1[C@@H]2CC[C@]2(C)[C@@H](c3ccc(=O)oc3)[C@@H](O)[C@H]3O[C@]132: f
C[C@]12CC[C@H](O)C[C@@]1(O)CC[C@@H]1[C@@H]2CC[C@]2(C)[C@@H](c3ccc(=O)oc3)[C@@H](O)[C@H]3O[C@]132: f

Now look at this one.
Hi there! Is MRT last for "C[C@]12CC[C@H](O)C[C@H]1CC[C@@H]1[C@@H]2C(=O)[C@@H](O)[C@]2(C)[C@@H](c3ccc(=O)oc3)CC[C@]12O" below 2 h, do you know?
t
